# credit: ChEMBL document CHEMBL5038600

# ASSAY OVERVIEW: AUC (0 to infinity) in C57BL/6 mouse at 5 mg/kg, po
# Type: ADME, organism-based
# Design: route oral, time infinity, dose 5 mg/kg
# TEST CONTEXT: in vivo
PARAMETER MEASURED: AUC(0-inf) (ng·h/mL)
Please respond with the number in ng·h/mL and leave the unit unwritten.

Ask | Give recorded AUC(0-inf). `C=CC(=O)N1C[C@@H]2C[C@H]1CN2S(=O)(=O)c1ccc(N2CC(CN3CCC([C@@](CN4CCC4)(c4cccc(F)c4)[C@H]4CCC[C@@H]4NC(=O)OC)CC3)(OC)C2)cc1`
Reply | 43600

----------
# STUDY TARGET: Menin (Homo sapiens)
# Sequence (whole entry): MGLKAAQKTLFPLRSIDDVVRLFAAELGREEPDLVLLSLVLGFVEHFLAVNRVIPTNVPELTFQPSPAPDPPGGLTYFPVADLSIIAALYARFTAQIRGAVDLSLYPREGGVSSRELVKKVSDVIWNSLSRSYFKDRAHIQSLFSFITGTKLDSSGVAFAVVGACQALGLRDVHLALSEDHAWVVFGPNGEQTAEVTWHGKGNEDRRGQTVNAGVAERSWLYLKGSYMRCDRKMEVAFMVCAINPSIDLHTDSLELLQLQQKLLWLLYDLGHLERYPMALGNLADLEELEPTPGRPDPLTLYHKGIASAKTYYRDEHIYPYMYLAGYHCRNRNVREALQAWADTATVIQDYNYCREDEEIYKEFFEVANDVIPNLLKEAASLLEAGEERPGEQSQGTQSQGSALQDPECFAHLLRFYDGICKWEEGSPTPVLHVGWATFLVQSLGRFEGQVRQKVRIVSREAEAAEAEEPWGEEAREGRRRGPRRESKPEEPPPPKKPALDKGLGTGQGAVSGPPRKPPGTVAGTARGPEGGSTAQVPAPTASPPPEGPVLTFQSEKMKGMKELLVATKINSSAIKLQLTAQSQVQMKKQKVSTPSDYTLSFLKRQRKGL
# ASSAY OVERVIEW: Binding affinity to recombinant human menin protein assessed as covalent complex formation incubated for 1 hrs by LC/MS analysis
# Parameters: concentration or dose not given beside the values
Each entry below lists one item and its recorded Activity value.
Please respond with the number in % and leave the unit unwritten.

As a guide, the following entries are already answered.
- COC(=O)N[C@H]1CCC[C@@H]1[C@](CN1CCC1)(c1cccc(F)c1)C1CCN(CC2(OC)CN(c3ccc(S(=O)(=O)C4CN(C(=O)/C=C/CN(C)C)C4)cc3)C2)CC1: 85.4
- C=CC(=O)N1CCC(S(=O)(=O)c2ccc(N3CC(CN4CCC([C@@](CN5CCC5)(c5cccc(F)c5)[C@H]5CCC[C@@H]5NC(=O)OC)CC4)(OC)C3)cc2)CC1: 0

Moving on to the next molecule.
Ask | Fill in: Activity on Menin (Homo sapiens), entry `C=CC(=O)N1C[C@@H]2C[C@H]1CN2S(=O)(=O)c1ccc(N2CC(CN3CCC([C@@](CN4CCC4)(c4cccc(F)c4)[C@H]4CCC[C@@H]4NC(=O)OC)CC3)(OC)C2)cc1`
Reply | 66

----------
# ASSAY OVERVIEW: Cmax in C57BL/6 mouse at 5 mg/kg, po
# Assay type: ADME, organism-based
# Set-up: route oral, dose 5 mg/kg
# TEST CONTEXT: in vivo
PARAMETER MEASURED: Cmax (ng/mL)
Please respond with the number in ng/mL and leave the unit unwritten.

Ask | Give recorded Cmax. `C=CC(=O)N1C[C@@H]2C[C@H]1CN2S(=O)(=O)c1ccc(N2CC(CN3CCC([C@@](CN4CCC4)(c4cccc(F)c4)[C@H]4CCC[C@@H]4NC(=O)OC)CC3)(OC)C2)cc1`
Reply | 4150

----------
Each entry below lists one item and its recorded Activity value.
# STUDY TARGET: Menin (Homo sapiens)
# ASSAY OVERVIEW: Binding affinity to recombinant human menin protein assessed as covalent complex formation measured after overnight incubation by LC/MS analysis
# Design: concentration or dose not given beside the values
Please report the result as a number followed by the unit.

* C=CC(=O)N1CCC[C@H](S(=O)(=O)c2ccc(N3CC(CN4CCC([C@@](CN5CCC5)(c5cccc(F)c5)[C@H]5CCC[C@@H]5NC(=O)OC)CC4)(OC)C3)cc2)C1 | 93.1%
* C=CC(=O)N1CCC[C@@H](S(=O)(=O)c2ccc(N3CC(CN4CCC([C@@](CN5CCC5)(c5cccc(F)c5)[C@H]5CCC[C@@H]5NC(=O)OC)CC4)(OC)C3)cc2)C1 | 90%
* C=CC(=O)N1C[C@H]2C[C@@H]1CN2S(=O)(=O)c1ccc(N2CC(CN3CCC([C@@](CN4CCC4)(c4cccc(F)c4)[C@H]4CCC[C@@H]4NC(=O)OC)CC3)(OC)C2)cc1 | 45.1%

Ask | Fill in: Activity on Menin (Homo sapiens), entry `COC(=O)N[C@H]1CCC[C@@H]1[C@](CN1CCC1)(c1cccc(F)c1)C1CCN(CC2(OC)CN(c3ccc(S(=O)(=O)C4CN(C(=O)/C=C/CN(C)C)C4)cc3)C2)CC1`
Reply | 90.9%

----------
# STUDY TARGET: Menin (Homo sapiens)
# ASSAY OVERVIEW: Binding affinity to recombinant human menin protein assessed as covalent complex formation incubated for 1 hrs by LC/MS analysis
# Set-up: concentration or dose not given beside the values
PARAMETER MEASURED: Activity (%)
Please respond with the number in % and leave the unit unwritten.

As a guide, the following entries are already answered.
* C=CC(=O)N1CC(S(=O)(=O)c2ccc(N3CC(CN4CCC([C@@](CN5CCC5)(c5cccc(F)c5)[C@H]5CCC[C@@H]5NC(=O)OC)CC4)(OC)C3)cc2)C1 | 59.4
* C=CC(=O)N1CCC[C@H](S(=O)(=O)c2ccc(N3CC(CN4CCC([C@@](CN5CCC5)(c5cccc(F)c5)[C@H]5CCC[C@@H]5NC(=O)OC)CC4)(OC)C3)cc2)C1 | 37.4

Ask | Give recorded Activity. `C=CC(=O)N1CCC[C@@H](S(=O)(=O)c2ccc(N3CC(CN4CCC([C@@](CN5CCC5)(c5cccc(F)c5)[C@H]5CCC[C@@H]5NC(=O)OC)CC4)(OC)C3)cc2)C1`
Reply | 40.5

Ask | Give recorded Activity. `C=CC(=O)N1C[C@H]2C[C@@H]1CN2S(=O)(=O)c1ccc(N2CC(CN3CCC([C@@](CN4CCC4)(c4cccc(F)c4)[C@H]4CCC[C@@H]4NC(=O)OC)CC3)(OC)C2)cc1`
Reply | 0
